Ref: patent US8859535B2

- Experimental system: human MDM4 protein (amino acids 2-185) (Homo sapiens, UniProt O15151)
- Construct: human MDM4 protein (amino acids 2-185); made in house
- Sequence (O15151 2-185): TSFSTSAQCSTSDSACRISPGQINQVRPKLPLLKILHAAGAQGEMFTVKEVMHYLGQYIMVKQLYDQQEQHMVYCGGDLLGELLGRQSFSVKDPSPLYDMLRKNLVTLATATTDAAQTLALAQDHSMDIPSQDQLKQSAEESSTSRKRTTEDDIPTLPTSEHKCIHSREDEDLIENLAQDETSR
- Procedure details: p53-MDM4 TR-FRET assay (p53-MDM4 Assay 1)
- Type: binding
- Study conditions: 2.5 nM MDM4-biotinylated, 10 nM Cy5-p53 peptide; read-out: IC50 (μM) of p53-Hdm4 inhibition (TR-FRET) Assay 1
Threshold-based label: IC50 under 5 µM gives rule met, IC50 not under 5 µM gives rule not met.

COc1cc2c(cc1OC(C)C)[C@H](c1ccc(Cl)cc1)N(c1ccc(C(C)(O)C3CCN(C4COC4)CC3)cc1)C(=O)C2 (stereo partly shown) [Example 96]    rule met
COc1cc2c(cc1OC(C)C)[C@H](c1ccc(Cl)cc1)N(c1ccc(C(C)(O)C3CC4CCCC(C3)O4)cc1)C(=O)C2 (stereo partly shown) [Example 161]    rule met
COc1cc2c(cc1OC(C)C)[C@H](c1ccc(Cl)cc1)N(c1ccc(C(C)(O)C3CC4CCCC(C3)N4CC(F)(F)F)cc1)C(=O)C2 (stereo partly shown) [Example 118]    rule not met

Q: Determine if COc1cc2c(cc1OC(C)C)[C@H](c1ccc(Cl)cc1)N(c1ccc(C(C)(O)C3CC4CCC(C3)N4C(C)=O)cc1)C(=O)C2 (stereo partly shown) [Example 104] shows IC50 strictly lower than 5 µM.
A: rule not met

Q: Determine if COc1cc2c(cc1OC(C)C)[C@H](c1ccc(Cl)cc1)N(c1ccc(C(C)(O)C3CCC(F)(F)CC3)cc1)C(=O)C2 (stereo partly shown) [Example 45] shows IC50 strictly lower than 5 µM.
A: rule not met

Q: Determine if COc1cc2c(cc1OC(C)C)[C@H](c1ccc(Cl)cc1)N(c1ccc(C(C)(O)C3CCN(C4CCC4)CC3)cc1)C(=O)C2 (stereo partly shown) [Example 97] shows IC50 strictly lower than 5 µM.
A: rule met

Q: Determine if COc1cc2c(cc1OC(C)C)[C@H](c1ccc(Cl)cc1)N(c1ccc(C(C)(O)c3ccc(F)c(F)c3)cc1)C(=O)C2 (stereo partly shown) [Example 19] shows IC50 strictly lower than 5 µM.
A: rule not met

Q: Determine if COc1cc2c(cc1OC(C)C)[C@H](c1ccc(Cl)cc1)N(c1ccc(C(C)(O)C3CCOCC3)cn1)C(=O)C2 (stereo partly shown) [Example 37] shows IC50 strictly lower than 5 µM.
A: rule not met

Q: Determine if CC[C@@H](C)Oc1cc2c(cc1OC)CC(=O)N(c1ccc(C(C)(O)C3CCN(C(C)=O)CC3)cc1)[C@H]2c1ccc(Cl)cc1 (stereo partly shown) [Example 52] shows IC50 strictly lower than 5 µM.
A: rule met

Q: Determine if COc1cc2c(cc1OC(C)C)[C@H](c1ccc(Cl)cc1)N(c1ccc(C(C)(O)C34CCC(CC3)O4)cc1)C(=O)C2 (mixture of isomers) [Example 135] shows IC50 strictly lower than 5 µM.
A: rule not met

Q: Determine if COc1cc2c(cc1OC(C)C)[C@H](c1ccc(Cl)cc1)N(c1ccc(C(C)(O)C3CCN(CCO)CC3)cc1)C(=O)C2 (stereo partly shown) [Example 93] shows IC50 strictly lower than 5 µM.
A: rule met

Q: Determine if COc1cc2c(cc1OC(C)C)[C@H](c1ccc(Cl)cc1)N(c1ccc(C(C)(O)C3CC4CCC(C3)N4CC(F)(F)F)cc1)C(=O)C2 (stereo partly shown) [Example 106] shows IC50 strictly lower than 5 µM.
A: rule not met

Q: Determine if COc1cc2c(cc1OC(C)C)[C@H](c1ccc(Cl)cc1)N(c1ccc([C@@](C)(O)C3CCOCC3)c(F)c1)C(=O)C2 (single isomer, unassigned) [Example 39] shows IC50 strictly lower than 5 µM.
A: rule met
